meta.source: patent US20250090540A1

# system tested: H1047R PIK3CA enzyme (Homo sapiens, UniProt P42336, H1047R)
# Sequence (P42336 whole entry H1047R): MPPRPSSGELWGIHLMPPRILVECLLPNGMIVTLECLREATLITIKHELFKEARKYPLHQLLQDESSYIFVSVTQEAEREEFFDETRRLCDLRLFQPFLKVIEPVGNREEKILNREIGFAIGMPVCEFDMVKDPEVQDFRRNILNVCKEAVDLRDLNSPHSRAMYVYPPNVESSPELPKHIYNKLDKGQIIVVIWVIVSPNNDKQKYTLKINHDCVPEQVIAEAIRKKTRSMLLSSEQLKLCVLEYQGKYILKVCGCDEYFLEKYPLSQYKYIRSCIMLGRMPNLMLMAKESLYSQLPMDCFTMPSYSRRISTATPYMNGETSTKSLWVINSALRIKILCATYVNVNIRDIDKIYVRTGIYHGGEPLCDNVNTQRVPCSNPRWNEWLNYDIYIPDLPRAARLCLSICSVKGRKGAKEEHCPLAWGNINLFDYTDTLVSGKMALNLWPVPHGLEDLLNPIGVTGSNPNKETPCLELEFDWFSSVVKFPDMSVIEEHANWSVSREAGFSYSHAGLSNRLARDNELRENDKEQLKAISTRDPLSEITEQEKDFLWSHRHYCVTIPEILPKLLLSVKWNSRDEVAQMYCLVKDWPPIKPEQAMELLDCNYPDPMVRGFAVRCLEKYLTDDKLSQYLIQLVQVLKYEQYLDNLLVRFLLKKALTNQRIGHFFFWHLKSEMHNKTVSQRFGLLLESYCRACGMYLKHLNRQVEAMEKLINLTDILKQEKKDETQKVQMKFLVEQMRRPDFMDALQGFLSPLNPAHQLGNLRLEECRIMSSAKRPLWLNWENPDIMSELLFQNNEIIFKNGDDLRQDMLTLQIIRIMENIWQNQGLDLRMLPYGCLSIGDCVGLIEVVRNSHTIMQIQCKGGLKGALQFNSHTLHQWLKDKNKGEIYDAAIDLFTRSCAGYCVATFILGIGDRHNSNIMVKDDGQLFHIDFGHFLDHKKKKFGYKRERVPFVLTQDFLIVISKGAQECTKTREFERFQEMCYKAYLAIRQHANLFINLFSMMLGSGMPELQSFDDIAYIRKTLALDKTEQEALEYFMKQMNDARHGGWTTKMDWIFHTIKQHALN
# Sequence (P27986 whole entry partner): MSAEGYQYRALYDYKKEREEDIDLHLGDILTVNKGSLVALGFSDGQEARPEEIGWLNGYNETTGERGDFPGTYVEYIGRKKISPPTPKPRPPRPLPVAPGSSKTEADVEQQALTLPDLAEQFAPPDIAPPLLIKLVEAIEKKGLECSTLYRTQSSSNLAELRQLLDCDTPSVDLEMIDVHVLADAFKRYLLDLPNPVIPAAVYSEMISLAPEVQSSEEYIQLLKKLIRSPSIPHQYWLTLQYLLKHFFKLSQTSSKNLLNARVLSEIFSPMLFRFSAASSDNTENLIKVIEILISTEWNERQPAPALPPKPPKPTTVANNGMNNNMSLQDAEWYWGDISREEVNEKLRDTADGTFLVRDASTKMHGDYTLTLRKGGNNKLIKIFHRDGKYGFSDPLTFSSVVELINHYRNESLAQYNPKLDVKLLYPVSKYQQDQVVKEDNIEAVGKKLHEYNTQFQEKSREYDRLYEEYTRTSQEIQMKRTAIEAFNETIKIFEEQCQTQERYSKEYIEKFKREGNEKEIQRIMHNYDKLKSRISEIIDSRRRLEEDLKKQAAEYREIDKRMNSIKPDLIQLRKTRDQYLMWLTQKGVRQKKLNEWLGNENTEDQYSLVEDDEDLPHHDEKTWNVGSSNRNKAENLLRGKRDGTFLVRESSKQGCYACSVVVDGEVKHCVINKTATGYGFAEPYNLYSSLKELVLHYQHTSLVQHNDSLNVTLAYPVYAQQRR
# assay remarks: ADP-Glo Biochemical PIK3CA Kinase Assay
observation type: IC50

Would you please look over these solved cases?
- Cc1ccccc1Nc1ncc(-c2cnn(C)c2)cc1NC(=O)c1cc(F)cc(Cl)c1: 0.5 to 1 µM
- Cc1ccc(Nc2ncc(C(=O)NCc3nccs3)cc2NC(=O)c2csc3ccccc23)cc1: 1 to 10 µM
- CNC(=O)c1cnc(Nc2ccccc2C)c(NC(=O)c2coc3ccccc23)c1: 1 to 10 µM
- Cc1cc(NC(=O)c2cnc(Nc3ccccc3C)c(NC(=O)c3cc(F)cc(C(F)(F)F)c3)c2)n[nH]1: 0.1 to 0.5 µM
- CNC(=O)c1cnc(Nc2ccccc2C)c(NC(=O)[C@]23C[C@H]4C[C@H](C[C@H](C4)C2)C3)c1: 1 to 10 µM

Input line: Fill in the recorded IC50 for this molecule, with H1047R PIK3CA enzyme (Homo sapiens, UniProt P42336, H1047R) as test system: O=C1C[C@H](CCO)[C@@H](CNC(=O)c2cc(F)cc(C(F)(F)F)c2)[C@H](c2cc(F)ccc2Cl)N1 (racemic)
Output line: 10 to 100 µM

Input line: Fill in the recorded IC50 for this molecule, with H1047R PIK3CA enzyme (Homo sapiens, UniProt P42336, H1047R) as test system: CNC(=O)c1cnc(N2C[C@H]3C[C@H]3c3ccccc32)c(NC(=O)c2csc3ccccc23)c1 (racemic)
Output line: 1 to 10 µM

Input line: Fill in the recorded IC50 for this molecule, with H1047R PIK3CA enzyme (Homo sapiens, UniProt P42336, H1047R) as test system: `Cc1ccccc1Nc1ncc(-c2cnn(C)c2)cc1NC(=O)c1cccc2cn(C)nc12`
Output line: 10 to 100 µM

Input line: Fill in the recorded IC50 for this molecule, with H1047R PIK3CA enzyme (Homo sapiens, UniProt P42336, H1047R) as test system: `CNC(=O)c1cnc(Nc2ccccc2C)c(NC(=O)c2ccnc3ccccc23)c1`
Output line: 10 to 100 µM

Input line: Fill in the recorded IC50 for this molecule, with H1047R PIK3CA enzyme (Homo sapiens, UniProt P42336, H1047R) as test system: `Cc1ccccc1Nc1ncc(-c2cnn(C)c2)cc1NC(=O)c1ccccc1C`
Output line: 10 to 100 µM

Input line: Fill in the recorded IC50 for this molecule, with H1047R PIK3CA enzyme (Homo sapiens, UniProt P42336, H1047R) as test system: `CNC(=O)c1cnc(Nc2ccccc2C)c(NS(=O)(=O)c2ccc(F)cc2C)c1`
Output line: 0.1 to 0.5 µM
